Data provenance is patent US20090062243A1.

Test system: SK-MEL-2 (melanoma)
Assay Notes: MTS cell viability assay, SK-MEL-2
Assay type: cell-based
Condition Notes: Homo sapiens, SK-MEL-2, cells incubated 72 h
Property Name: IC50 (µM)
Use µM as the unit, but write only the number.

C=C(CNCCO)[C@@H]1CC[C@]2(CO)CC[C@]3(C)[C@H](CC[C@@H]4[C@@]5(C)CCC(=O)C(C)(C)[C@@H]5CC[C@]43C)[C@@H]12 [Compound 22b]
45

Task item: Return reported IC50. Input compound: C=C(CO)[C@@H]1CC[C@]2(COC3CCCCO3)CC[C@]3(C)[C@H](CC[C@@H]4[C@@]5(C)CCC(NCCOC)C(C)(C)[C@@H]5CC[C@]43C)[C@@H]12 (some centres unmarked) [Compound 24ae]
Reply: 34

Task item: Return reported IC50. Input compound: C=C(CO)[C@@H]1CC[C@]2(COC3CCCCO3)CC[C@]3(C)[C@H](CC[C@@H]4[C@@]5(C)CCC(=O)C(C)(C)[C@@H]5CC[C@]43C)[C@@H]12 (some centres unmarked)
Reply: 34

Task item: Return reported IC50. Input compound: C=C(C=O)[C@@H]1CC[C@]2(CO)CC[C@]3(C)[C@H](CC[C@@H]4[C@@]5(C)CCC(=O)C(C)(C)[C@@H]5CC[C@]43C)[C@@H]12
Reply: 16

Task item: Return reported IC50. Input compound: C=C(CO)[C@@H]1CC[C@]2(COC3CCCCO3)CC[C@]3(C)[C@H](CC[C@@H]4[C@@]5(C)CCC(NCCc6ccc(O)c(O)c6)C(C)(C)[C@@H]5CC[C@]43C)[C@@H]12 (some centres unmarked) [Compound 24ai]
Reply: 5

Task item: Return reported IC50. Input compound: C=C(CNCCO)[C@@H]1CC[C@]2(CO)CC[C@]3(C)[C@H](CC[C@@H]4[C@@]5(C)CCC(N)C(C)(C)[C@@H]5CC[C@]43C)[C@@H]12 (some centres unmarked) [Compound 24bb]
Reply: 6

----------
Test system: SK-MEL-2 (melanoma)
Assay Notes: MTS cell viability assay, SK-MEL-2
Type: cell-based
Condition Notes: Homo sapiens, SK-MEL-2, cells incubated 72 h
Property Name: IC50 (µM)
Use µM as the unit, but write only the number.

Some solved cases for reference:
C=C(C=O)[C@@H]1CC[C@]2(COC3CCCCO3)CC[C@]3(C)[C@H](CC[C@@H]4[C@@]5(C)CCC(=O)C(C)(C)[C@@H]5CC[C@]43C)[C@@H]12 (some centres unmarked)
7
CC(CNCCO)[C@@H]1CC[C@]2(CO)CC[C@]3(C)[C@H](CC[C@@H]4[C@@]5(C)CCC(O)C(C)(C)[C@@H]5CC[C@]43C)[C@@H]12 (some centres unmarked) [Compound 36b]
16

We next turn to a different molecule, shown below.
Task item: Return reported IC50. Input molecule: C=C(CNCCO)[C@@H]1CC[C@]2(COC3CCCCO3)CC[C@]3(C)[C@H](CC[C@@H]4[C@@]5(C)CCC(=O)C(C)(C)[C@@H]5CC[C@]43C)[C@@H]12 (some centres unmarked) [Compound 22a]
Reply: 17

----------
System: A-375 (melanoma)
Assay Notes: MTS cell viability assay, A-375
Type: cell-based
Condition Notes: Homo sapiens, A-375, cells incubated 72 h
Procedure: Cells were plated, the evening before treatment, for each treatment on 96-well plates (1×10^4 cells/well) in 100 μL volume per well. […] Cells were treated by aspirating plating media from each well and adding 80 μL of betulinic acid (control) or each analog solution in serial dilutions to the adherent cells. […] Absorbances at 490 nm were measured on a Wallac Victor II plate reader at multiple time points following the addition of MTS reagent for each plate. […]
Property Name: IC50

Task item: Return reported IC50. Input molecule: CC(CNCCO)[C@@H]1CC[C@]2(COC3CCCCO3)CC[C@]3(C)[C@H](CC[C@@H]4[C@@]5(C)CCC(O)C(C)(C)[C@@H]5CC[C@]43C)[C@@H]12 (some centres unmarked) [Compound 36a]
Reply: 5 µM

Task item: Return reported IC50. Input molecule: C=C(C(OC)OC)[C@@H]1CC[C@]2(CO)CC[C@]3(C)[C@H](CC[C@@H]4[C@@]5(C)CCC(=O)C(C)(C)[C@@H]5CC[C@]43C)[C@@H]12
Reply: 7 µM

Task item: Return reported IC50. Input molecule: C=C(C=O)[C@@H]1CC[C@]2(COC3CCCCO3)CC[C@]3(C)[C@H](CC[C@@H]4[C@@]5(C)CCC(=O)C(C)(C)[C@@H]5CC[C@]43C)[C@@H]12 (some centres unmarked)
Reply: < 3 µM

Task item: Return reported IC50. Input molecule: C=C(C=O)[C@@H]1CC[C@]2(CO)CC[C@]3(C)[C@H](CC[C@@H]4[C@@]5(C)CCC(=O)C(C)(C)[C@@H]5CC[C@]43C)[C@@H]12
Reply: 18 µM

Task item: Return reported IC50. Input molecule: C=C(CNCCc1ccc(O)cc1)[C@@H]1CC[C@]2(COC3CCCCO3)CC[C@]3(C)[C@H](CC[C@@H]4[C@@]5(C)CCC(=O)C(C)(C)[C@@H]5CC[C@]43C)[C@@H]12 (some centres unmarked) [Compound 22c]
Reply: 6 µM

Task item: Return reported IC50. Input molecule: C=C(CO)[C@@H]1CC[C@]2(CO)CC[C@]3(C)[C@H](CC[C@@H]4[C@@]5(C)CCC(=O)C(C)(C)[C@@H]5CC[C@]43C)[C@@H]12
Reply: 40 µM

Task item: Return reported IC50. Input molecule: C=C(CNCCO)[C@@H]1CC[C@]2(CO)CC[C@]3(C)[C@H](CC[C@@H]4[C@@]5(C)CCC(N)C(C)(C)[C@@H]5CC[C@]43C)[C@@H]12 (some centres unmarked) [Compound 24bb]
Reply: 5 µM

Task item: Return reported IC50. Input molecule: C=C(C=O)[C@@H]1CC[C@]2(COC3CCCCO3)CC[C@]3(C)[C@H](CC[C@@H]4[C@@]5(C)C=CC(=O)C(C)(C)[C@@H]5CC[C@]43C)[C@@H]12 (some centres unmarked)
Reply: 1 µM

Task item: Return reported IC50. Input molecule: C=C(CO)[C@@H]1CC[C@]2(COC3CCCCO3)CC[C@]3(C)[C@H](CC[C@@H]4[C@@]5(C)C=CC(=O)C(C)(C)[C@@H]5CC[C@]43C)[C@@H]12 (some centres unmarked)
Reply: 18 µM

Task item: Return reported IC50. Input molecule: C=C(CO)[C@@H]1CC[C@]2(COC3CCCCO3)CC[C@]3(C)[C@H](CC[C@@H]4[C@@]5(C)CCC(NCCO)C(C)(C)[C@@H]5CC[C@]43C)[C@@H]12 (some centres unmarked) [Compound 24ac]
Reply: 13 µM

Task item: Return reported IC50. Input molecule: C=C(C=O)[C@@H]1CC[C@]2(CO)CC[C@]3(C)[C@H](CC[C@@H]4[C@@]5(C)C=CC(=O)C(C)(C)[C@@H]5CC[C@]43C)[C@@H]12
Reply: 6 µM

----------
System: A-375 (melanoma)
Assay Notes: MTS cell viability assay, A-375
Type: cell-based
Condition Notes: Homo sapiens, A-375, cells incubated 72 h
Property Name: IC50
Just the number plus its unit, please.

C=C(C)[C@@H]1CC[C@]2(COC3CCCCO3)CC[C@]3(C)[C@H](CC[C@@H]4[C@@]5(C)C=C(C=O)C(=O)C(C)(C)[C@@H]5CC[C@]43C)[C@@H]12 (stereo partly drawn)
6 µM
C=C(CO)[C@@H]1CC[C@]2(COC3CCCCO3)CC[C@]3(C)[C@H](CC[C@@H]4[C@@]5(C)CCC(NCCOC)C(C)(C)[C@@H]5CC[C@]43C)[C@@H]12 (stereo partly drawn) [Compound 24ae]
6 µM

Task item: Give reported IC50 for C=C(CO)[C@@H]1CC[C@]2(CO)CC[C@]3(C)[C@H](CC[C@@H]4[C@@]5(C)C=CC(=O)C(C)(C)[C@@H]5CC[C@]43C)[C@@H]12 (A-375 (melanoma))
Reply: 61 µM

----------
IC50 values, listed per item
Test system: A-375 (melanoma)
Assay Notes: MTS cell viability assay, A-375
Format: cell-based
Condition Notes: Homo sapiens, A-375, cells incubated 72 h
Use µM as the unit, but write only the number.

Some solved cases for reference:
C=C(CO)[C@@H]1CC[C@]2(COC3CCCCO3)CC[C@]3(C)[C@H](CC[C@@H]4[C@@]5(C)CCC(NCCc6ccc(O)c(O)c6)C(C)(C)[C@@H]5CC[C@]43C)[C@@H]12 (stereo partly drawn) [Compound 24ai]
14
C=C(CNCCO)[C@@H]1CC[C@]2(COC3CCCCO3)CC[C@]3(C)[C@H](CC[C@@H]4[C@@]5(C)CCC(N)C(C)(C)[C@@H]5CC[C@]43C)[C@@H]12 (stereo partly drawn) [Compound 24ba]
3
C=C(CO)[C@@H]1CC[C@]2(CO)CC[C@]3(C)[C@H](CC[C@@H]4[C@@]5(C)CCC(NCCc6ccc(O)c(O)c6)C(C)(C)[C@@H]5CC[C@]43C)[C@@H]12 (stereo partly drawn) [Compound 24aj]
6
C=C(CO)[C@@H]1CC[C@]2(CO)CC[C@]3(C)[C@H](CC[C@@H]4[C@@]5(C)CCC(N)C(C)(C)[C@@H]5CC[C@]43C)[C@@H]12 (stereo partly drawn) [Compound 24ab]
6
C=C(CO)[C@@H]1CC[C@]2(CO)CC[C@]3(C)[C@H](CC[C@@H]4[C@@]5(C)CCC(NCCO)C(C)(C)[C@@H]5CC[C@]43C)[C@@H]12 (stereo partly drawn) [Compound 24ad]
16
C=C(C=O)[C@@H]1CC[C@]2(COC(C)=O)CC[C@]3(C)[C@H](CC[C@@H]4[C@@]5(C)CCC(=O)C(C)(C)[C@@H]5CC[C@]43C)[C@@H]12 [Compound 14a]
16
C=C(CNCCO)[C@@H]1CC[C@]2(CO)CC[C@]3(C)[C@H](CC[C@@H]4[C@@]5(C)CCC(=O)C(C)(C)[C@@H]5CC[C@]43C)[C@@H]12 [Compound 22b]
10
C=C(COS(C)(=O)=O)[C@@H]1CC[C@]2(CO)CC[C@]3(C)[C@H](CC[C@@H]4[C@@]5(C)CCC(=O)C(C)(C)[C@@H]5CC[C@]43C)[C@@H]12 [Compound 21b]
21

We next turn to a different molecule, shown below.
Task item: Return reported IC50. Input molecule: C=C(CO)[C@@H]1CC[C@]2(COC3CCCCO3)CC[C@]3(C)[C@H](CC[C@@H]4[C@@]5(C)CCC(N)C(C)(C)[C@@H]5CC[C@]43C)[C@@H]12 (stereo partly drawn) [Compound 24aa]
Reply: 0.89
